Overview of reported Papp across a group of compounds:
Assay: Permeability of the compound by PAMPA
Format: physicochemical
Details: read-out: permeability
Please respond with the number in ×10⁻⁶ cm/s and leave the unit unwritten.

>>> df
                                querysmiles  measurementlabel  endpointvalue
0  CC(=O)N1CCC(c2nc(NCc3cccnc3)ncc2-c2cc(C)no2)CC1              Papp              2

Now look at this entry.
What measured Papp goes with CC(=O)N1CCC(c2nc(N3CCN(C)CC3)ncc2-c2cc(C)no2)CC1 ?
2

====

Assay: Solubility of the compound at pH 3 to 7.4 after 24 hrs
Format: physicochemical
Settings: buffer, pH 3
Kind request: treat 200 µM as inclusive, so solubility at 24 h at 200 µM or higher is Fulfilled, anything lower is Not fulfilled.

>>> df
                                querysmiles     grouplabel
0  CC(=O)N1CCC(c2nc(N3CCN(C)CC3)ncc2-c2cc(C)no2)CC1      Fulfilled
1  Cc1cc(-c2cnc(NCc3cccnc3)nc2-c2ccc(C)s2)on1  Not fulfilled
2  CC(=O)N1CCC(c2nc(N3CCOCC3)ncc2-c2cc(C)no2)CC1      Fulfilled
3  CC(=O)N1CCC(c2nc(NCc3cccnc3)ncc2-c2cc(C)no2)CC1      Fulfilled

Now take the following molecule into account.
Check the entry CC(=O)N1CCC(c2nc(NC(C)C)ncc2-c2cc(C)no2)CC1 : does solubility at 24 h equal or exceed 200 µM?
Fulfilled

====

solubility at 24 h values by entry
Test: Solubility of the compound at pH 3 to 7.4 after 24 hrs
Format: physicochemical
Conditions: buffer, pH 3
Number only, in µM; omit the unit.

>>> df
                                querysmiles    measurementlabel  unitsofmeasure  endpointvalue
0  Cc1cc(-c2cnc(N3CCN(C)CC3)nc2-c2ccc(C)s2)on1  solubility at 24 h              µM             11

Any idea what its solubility at 24 h is? The compound is CC(=O)N1CCC(c2nc(N3CCCC3)ncc2-c2cc(C)no2)CC1
207

Query (compound): Cc1cc(-c2cnc(NCc3ccccn3)nc2-c2ccc(C)s2)on1 ; field requested: solubility at 24 h
1

# get_value(readout='solubility at 24 h', item= CC(=O)N1CCC(c2nc(NCc3ccccn3)ncc2-c2cc(C)no2)CC1 )
221

Param item = COCCNc1ncc(-c2cc(C)no2)c(C2CCN(C(C)=O)CC2)n1 ; retrieve measured solubility at 24 h.
233

====

Test: Permeability of the compound by PAMPA
Type: physicochemical
Conditions: read-out: permeability
measurementLabel: Papp (×10⁻⁶ cm/s)
Number in ×10⁻⁶ cm/s, nothing else.

May I ask what Papp has been recorded for COCCNc1ncc(-c2cc(C)no2)c(C2CCN(C(C)=O)CC2)n1 ?
2

Which Papp is reported for this compound? CC(=O)N1CCC(c2nc(NCc3ccccn3)ncc2-c2cc(C)no2)CC1
2

====

Biological target: CYP3A4 (Homo sapiens, UniProt P08684)
Sequence (P08684 whole entry): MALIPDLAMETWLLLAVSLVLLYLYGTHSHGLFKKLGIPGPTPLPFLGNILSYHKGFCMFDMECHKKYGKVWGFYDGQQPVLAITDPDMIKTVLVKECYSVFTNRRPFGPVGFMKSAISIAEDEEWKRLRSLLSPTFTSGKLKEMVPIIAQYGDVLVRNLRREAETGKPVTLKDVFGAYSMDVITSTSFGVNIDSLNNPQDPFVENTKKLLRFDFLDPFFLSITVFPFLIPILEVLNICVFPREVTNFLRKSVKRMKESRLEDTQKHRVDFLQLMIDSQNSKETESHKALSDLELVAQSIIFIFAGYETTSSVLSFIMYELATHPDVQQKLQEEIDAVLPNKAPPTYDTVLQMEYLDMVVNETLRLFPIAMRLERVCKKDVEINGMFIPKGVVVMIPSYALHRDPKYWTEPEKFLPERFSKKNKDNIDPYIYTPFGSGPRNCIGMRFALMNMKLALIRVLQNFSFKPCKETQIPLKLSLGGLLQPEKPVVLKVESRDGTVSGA
Assay: Metabolic stability of in DMSO solution assessed as human CYP3A4-mediated drug degdaradtion by measuring compound remaining at 1 uM after 1 hr in presence of human CYP3A4 and NADPH
Type: ADME
Conditions: human CYP3A4 enzyme, read-out: Stability
Parameter remaining at 1 h, 1 µM: see the listing below.

Observe how each entry below is paired with its result.
                                   compound  endpointvalue
0  Cc1cc(-c2cnc(NCc3ccc(F)cc3)nc2-c2ccc(C)s2)on1            29%
1  Cc1cc(-c2cnc(N3CCOCC3)nc2-c2ccc(C)s2)on1          < 20%
2   Cc1cc(-c2cnc(N3CCCC3)nc2-c2ccc(C)s2)on1          < 20%
3  Cc1cc(-c2cnc(NCc3cccnc3)nc2-c2ccc(C)s2)on1          < 20%
4  COCCNc1ncc(-c2cc(C)no2)c(C2CCN(C(C)=O)CC2)n1            84%

So what remaining at 1 h, 1 µM did COCCNc1ncc(-c2cc(C)no2)c(-c2ccc(C)s2)n1 get with CYP3A4 (Homo sapiens, UniProt P08684)?
27%

API: value(readout=remaining at 1 h, 1 µM, system=CYP3A4 (Homo sapiens, UniProt P08684)) for record Cc1cc(-c2cnc(N3CC(C)OC(C)C3)nc2-c2ccc(C)s2)on1 (stereo not drawn)
< 20%

Request body: readout remaining at 1 h, 1 µM, system CYP3A4 (Homo sapiens, UniProt P08684), query CC(=O)N1CCC(c2nc(N3CCCC3)ncc2-c2cc(C)no2)CC1 . Return the value.
59%

What value of remaining at 1 h, 1 µM on CYP3A4 (Homo sapiens, UniProt P08684) does CC(=O)N1CCC(c2nc(NC(C)C)ncc2-c2cc(C)no2)CC1 have?
75%

Given the entry Cc1cc(-c2cnc(NCc3ccccn3)nc2-c2ccc(C)s2)on1 , what remaining at 1 h, 1 µM was observed with CYP3A4 (Homo sapiens, UniProt P08684)?
< 20%
